# Tested on: K4 kissing-loop RNA reporter
# TEST DESCRIPTION: apparent KD of K4 kissing-loop reporter; higher = weaker reporter binding
# COND: Eterna round: R107; input ligand: none
OUTCOME MEASURE: apparent KD of K4 kissing-loop reporter (nM)
# unit: nM | format: bare number

These solved cases illustrate the format of a correct answer.
CHAIN SEQUENCE	READOUT UNITS	apparent KD of K4 kissing-loop reporter
CCAUCGCUAUUCGAUACCAGUCUUUUUUAUUUAUAAAAUCUGCAAAGGAGUGAUGUUCCAGACCCUUGGCAGCGAAUAGUGAUGG [Theophylline B K4 3]	nM	464
AUUAAUUUCAGAGGAUAUCGUUAUUUUUUAUAUUUUAUUCAUUUAUGCAGUGAUGUUGCUAUUAAUCGAGAAGGCUGAUUUAUAA [JR_ExcFMNB_Sub003]	nM	47.1

Switching to the query record.
Answer with the recorded apparent KD of K4 kissing-loop reporter of ACGUCCCGUUUACUCGUGGGUUAGGUCGAUACCAGUAUUCAAACUUACCCUUGGCAGCGACAUGAGUGAUGUUCAUGUGCGAAGA [KL-XTheo-A5 #analogue] only. 108

###

Recorded apparent KD of MS2 coat protein by entry
# Test system: MS2 coat protein
# TEST DESCRIPTION: apparent KD of MS2 coat protein; designed switch direction (-1 OFF switch, 1 ON switch): -1; higher = weaker reporter binding
# COND: input ligand: none
Dear colleague, please return just the value in nM, with no unit written.

CHAIN SEQUENCE	SYSTEM TESTED	apparent KD of MS2 coat protein [nM]
GAAGAUCGAGUUAGGAUAUGAUUACUAUCCGAAAAUCAGAAGGAACUUGAGGAUCACCCAAGUAAAGAAGAAAU [JR_BMEx4_Sub051] (Eterna round: R97, puzzle: Brourd's mod of Exclusion 4)	MS2 coat protein	16.5

Recall the reported apparent KD of MS2 coat protein of AUGAGCAGACGGAGAUCCAACAUGAGGAUCACCCAUGUCUCAUAAGCUUUUUGUUCAUCUUAUUGUACCUUGGUGCA [Mat - Sensor v3 - turn-off var 1 - JL Mod - D25] (Eterna round: R96, puzzle: Sensor v3, turn-off variant 1) when tested on MS2 coat protein. 198

Determine reported apparent KD of MS2 coat protein for GUAGAGUCAGGAUAUACGAGAUCGAAAGAUCGGCGAUCCAUACAUGAGGAUCACCCAUGUAGAAGGGACUCUAC [ChP 11-04-2015 #5] (Eterna round: R96, puzzle: Exclusion 2) ; test system: MS2 coat protein. 19.1

# return apparent KD of MS2 coat protein of GAGAUACAUGAGGAUCACCCAUGUGAGGAUAUGAGCACGCCGGUGACGGUGAUAAGAAUCAGAAGGCACAAUGG [Mat - Exclusion 1 - JL Mod - D31] (Eterna round: R97, puzzle: Exclusion 1) (system: MS2 coat protein) 453

###

# Test system: K4 kissing-loop RNA reporter
# TEST DESCRIPTION: apparent KD of K4 kissing-loop reporter; higher = weaker reporter binding
# COND: Eterna round: R107; input ligand: tryptophan 2.4 mM
Rule: criterion met for apparent KD of K4 kissing-loop reporter not less than 0.2 µM, criterion not met for anything less.

Use these answered entries as a reference point.
CHAIN SEQUENCE	SYSTEM TESTED	GROUP LABEL
AGAGUUAUGCGAGGAUAUGCGGUUAGUACUCAAAGAGUACUAACAGCAGAGUGAUGUUCUGUGAAAGCAGAAGGUGCAUAACUCA [Omei KL FMN B SS B v10]	K4 kissing-loop RNA reporter	criterion met
UUUGGUUUCUCGGCCGCCACUCGUUGGUUAUGGGCUUCAGGGAUAUAGUGAUGUUAUGUAUAGAAGAGGACCGGGAGAAGGUUUG [ExTryptoB.Dt]	K4 kissing-loop RNA reporter	criterion met
GCAUGCAUGGCAGGAUAUAAUCUGGAGUGAUGUUCCUUUAACCUUUCGAACGGCGAGCCAGGUUGAUUAGAAGGGCCAUGCAUGC	K4 kissing-loop RNA reporter	criterion met
GGUGCUGUCUGUGCCGCCCUCCUCGUUCCUCGAGGACCGGUACGGCCGCCACUCGAGUGAUGUUUGGGUAGCGAUCCCUGCUAGC [Bdazzled - #16 Exc. Tryptophan A]	K4 kissing-loop RNA reporter	criterion met
GGGUGGUAGGCGGCCGCCACUCUGAGCACCCACUGAGUGAUGUUCGUGGCGUAAGCCUGUUCAUAGAGGACCGGGUUUGUUGUUC [Exclusion Tryptophan B GF 16]	K4 kissing-loop RNA reporter	criterion met

Now for a further sequence.
Please indicate if the recorded apparent KD of K4 kissing-loop reporter for GGUGACUACCAGAGGUGAUGUAUAGUAUCGCGAGGACCGGUACGGCCGCCACUCGUGAAGAGAAAGGAGUGAUGUUCCGUAAUGG [Kazoo C8] meets or exceeds 0.2 µM. criterion not met

###

# Test system: MS2 coat protein
# TEST DESCRIPTION: apparent KD of MS2 coat protein; designed switch direction (-1 OFF switch, 1 ON switch): -1; higher = weaker reporter binding
# COND: input ligand: FMN 200 uM
Outcome label depends on apparent KD of MS2 coat protein relative to 60 nM: at/above gives T, below gives F.

Examples from the recorded data:
CHAIN SEQUENCE	GROUP LABEL
AAUAAGGGAGGAUAUACAUUAAAUCCUAUUUUCUUUUUGUUACAUGAGGAUCACCCAUGUAGAAGGCCCAAUAA [lam1] (Eterna round: R97, puzzle: Exclusion 2)	F
GUGAUAACCAAGCUAGCCAACAUGAGGAUCACCCAUGUGUUCGAUAUGCAACAGGUAUGAUCUUAAUUUGCUCGAUC [Eternabot (Original) Solution 20] (Eterna round: R97, puzzle: Sensor, turn-off variant 1)	F

Attention now shifts to the item below.
hey, is apparent KD of MS2 coat protein for this one >= 60 nM? AAAGCCAAGCGAGGAUAUGCGAUAGUUGAUCUUCGUGAGGACAUGAGGAUCACCCAUGUGCUGCAGCAGAAGGCGCAGGUAAAG [Anramaqu] (Eterna round: R96, puzzle: Exclusion NG 2) T

###

# Test system: MS2 coat protein
# TEST DESCRIPTION: apparent KD of MS2 coat protein; designed switch direction (-1 OFF switch, 1 ON switch): -1; higher = weaker reporter binding
# COND: input ligand: FMN 200 uM
OUTCOME MEASURE: apparent KD of MS2 coat protein (nM)
Numbers only; they are read as nM.

Known results for sequences:
CHAIN SEQUENCE	apparent KD of MS2 coat protein [nM]
ACUUACUGAGGAUAUACUUAGAUUUACAUGAGGAUCACCCAUGUUCCUCUAUGUAUAUAUGUAGAAGGCAGAAGAA [JL-ex5-4.35 Malcolm mod] (Eterna round: R97, puzzle: Exclusion 5)	120
AAGACUCGCAAUAAGAACAAGCACUCCGAACUAUAAGUAACAUGAGGAUCACCCAUGUCAAGGGUGCCAAAGUCAAA [JR_Sensorv2_tov2_Sub302] (Eterna round: R96, puzzle: Sensor v2, turn-off variant 2)	15.4
CCACGACAUGAGGAUCACCCAUGUGAGGAUAUGGCCAGUAUGGCGUGAGCUGAAUCAAUCAGAAGGCGCGUGGG [salish99_ex1_r4_056] (Eterna round: R97, puzzle: Exclusion 1)	276

Next sequence, please.
Provide apparent KD of MS2 coat protein, recorded with MS2 coat protein, of CUAAAUCAUGUAGGAUAUGCGUGGCAAAGCUAUGCAGAAGGACAUGAGGAUCACCCAUGUCAUUCCGUCUGGAAACAGACGGGA [Mat - Exclusion NG 1 - Mod of JL - D53] (Eterna round: R96, puzzle: Exclusion NG 1) 283

###

This section presents sequences with their documented apparent KD of K4 kissing-loop reporter values.
# Tested on: K4 kissing-loop RNA reporter;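 note: bound reporter read as fluorescence of individual clusters on recovered sequencing chips by microscopy, with normalized cluster intensities fitted with a binding model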
# TEST DESCRIPTION: apparent KD of K4 kissing-loop reporter; higher = weaker reporter binding
# COND: Eterna round: R107; input ligand: FMN 200 uM
Quick reminder: number only, in µM, skip the unit.

Entry GCAGACACGCAGUGAUGUUGCGAAACGGAAGGAGCGCGUGAAAACGCAGGUAGGUCGCCGAAACAUAAAUUAUAAUUUUGUUUGC [Arginine A K4 13] needs its apparent KD of K4 kissing-loop reporter filled in; supply it. 0.244

Specify measured apparent KD of K4 kissing-loop reporter for UUAGAGAUCUCAGGAUAUCAGUGAUGUUGGUGUUAAGAUCUGAGAUAGAAUUCUAUCUCAGAUCAAUGAGAAGGGAGAUCUCAUU [AK3 Exc FMN B] . 0.296

Return apparent KD of K4 kissing-loop reporter for the following sequence: GCAGUGAUGUUGCGGAUGUACAGUGGCGUGCGAGGACCGGUACGGCCGCCACUCGUACAGCACAAGCUAAUACAUCGAUAGGUGA [whbob_SS_Tryp_A_m2] 0.566

Using the record for GCGGGCCCGGGAGGAUAUGAGUCGAGUGAUGUUCGGCGGUCCAUGCCGUUGCGGCGUUAAGCCCUUUUAGAAGGCCCGGGCCCGC [#2 Exclusion - FMN B Attempt #2 (HarryS)] , state its measured apparent KD of K4 kissing-loop reporter. 0.208

Check the records and state apparent KD of K4 kissing-loop reporter for GCGGACAUUCGCAGUGAUGUUGCGACGGAAGGAGCGCGUGAAAACGCAGGUAGGUCGCCGACAAAAUUAAUUUUAAUGUGUUCGC [Arginine A K4 30] 0.362

Return apparent KD of K4 kissing-loop reporter (reported value) for this sequence: ACCUACGAUCACGAAAGUGAUUGUAGGAUCUAGGAUAUGCUGAAGAGCAGAAGGAGAGUGAUGUUCUCAUCUCACGAAAGUGAGA [whbob_Ex_FMNA__2th190] 0.437
